Recorded MIC, one value per entry.
test system: Strep. agalactiae SPA1; experiment: MIC against veterinary bacteria in vitro; settings: Streptococcus agalactiae, SPA1, 18 h

Completed entries (count: 3):
| compound | MIC |
| --- | --- |
| C/C(=C\c1ncc(-c2ccc(C#N)cc2)o1)C[C@@H]1OC[C@H](C[C@@H]2O[C@H]2[C@@H](C)[C@H](C)O)[C@@H](O)[C@H]1O [Example 21] | 1.25 µg/mL |
| C/C(=C\c1ncc(CCCCCCCC(=O)O)o1)C[C@@H]1OC[C@H](C[C@@H]2O[C@H]2[C@@H](C)[C@H](C)O)[C@@H](O)[C@H]1O [Example 12] | 20 µg/mL |
| C/C(=C\c1ncc(-c2cccc([N+](=O)[O-])c2)o1)C[C@@H]1OC[C@H](C[C@@H]2O[C@H]2[C@@H](C)[C@H](C)O)[C@@H](O)[C@H]1O [Example 6] | 2.5 µg/mL |

MIC in this record for C/C(=C\c1ncc(Cc2ccccc2)o1)C[C@@H]1OC[C@H](C[C@@H]2O[C@H]2[C@@H](C)[C@H](C)O)[C@@H](O)[C@H]1O [Example 27, 5-Benzyl-2-(1-normon-2-yl)oxazole A] : 20 µg/mL

MIC in this record for C/C(=C\c1ncc(C)o1)C[C@@H]1OC[C@H](C[C@@H]2O[C@H]2[C@@H](C)[C@H](C)O)[C@@H](O)[C@H]1O [Example 14, 5-Methyl-2-(1-normon-2-yl) oxazole A] : > 80 µg/mL
